Recorded measurements of log10 EC50, one per entry
# study system: human muscarinic M1 receptor (Homo sapiens)
# Sequence (P11229 whole entry): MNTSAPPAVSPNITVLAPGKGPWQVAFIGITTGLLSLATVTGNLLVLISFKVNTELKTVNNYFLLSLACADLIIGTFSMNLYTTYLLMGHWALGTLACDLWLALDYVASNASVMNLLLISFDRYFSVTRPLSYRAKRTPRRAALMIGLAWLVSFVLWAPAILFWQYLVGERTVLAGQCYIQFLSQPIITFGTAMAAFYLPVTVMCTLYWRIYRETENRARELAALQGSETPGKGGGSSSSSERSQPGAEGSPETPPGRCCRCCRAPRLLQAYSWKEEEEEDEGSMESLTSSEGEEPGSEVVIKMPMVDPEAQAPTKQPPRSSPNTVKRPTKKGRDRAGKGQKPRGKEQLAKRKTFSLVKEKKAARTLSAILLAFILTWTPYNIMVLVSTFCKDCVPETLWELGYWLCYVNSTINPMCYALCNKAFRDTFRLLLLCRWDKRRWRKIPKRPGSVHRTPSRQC
# test details: Alphascreen Surefire phospho-ERK1/2 functional assay, M1
# Type: cell-based
# condition description: CHO cells stably expressing human M1; agonist 5 min, 37° C.; read-out: pEC50 M1 (converted)
Scale: decimal log of EC50, EC50 in nM.

Example entries begin here.
[
  {
    "compound": "CCOC(=O)N1CC2(CCC(N3CC(OC(=O)N4CCCOCC4)C3)C2)C1 (single isomer, unassigned) [Example 4-9 Isomer 2]",
    "log10 EC50": 3.75
  },
  {
    "compound": "CCOC(=O)N1C2CCCC1CC(N1CC(CC(=O)N3CCCCC3)C1)C2 (single isomer, unassigned) [Example 3-3 Isomer 1]",
    "log10 EC50": 2.50
  }
]

What value of log10 EC50 has been recorded for this entry: CCN(CC)C(=O)OC1CN(C2CCC3(C2)CN(C(=O)OC)C3)C1 (single isomer, unassigned) [Example 4-6 Isomer 1]
2.80

What value of log10 EC50 has been recorded for this entry: CCOC(=O)N1CC2(CCC(N3CC(OC(=O)N(CC)CC)C3)C2)C1 (single isomer, unassigned) [Example 4-5 Isomer 2]
3.05

What value of log10 EC50 has been recorded for this entry: CCOC(=O)N1CC2(CC(N3CC(OC(=O)N(CC)CC)C3)C2)C1 [Example 4-1]
2.92

What value of log10 EC50 has been recorded for this entry: CCOC(=O)N1CC2CCC1CC2N1CC(OC(=O)N2CCCC2)C1 (single isomer, unassigned) [Example 6-2 Isomer 1]
3.84

###

# study system: human muscarinic M3 receptor (Homo sapiens, UniProt P20309)
# Construct: expressed in transfected cells
# Sequence (P20309 whole entry): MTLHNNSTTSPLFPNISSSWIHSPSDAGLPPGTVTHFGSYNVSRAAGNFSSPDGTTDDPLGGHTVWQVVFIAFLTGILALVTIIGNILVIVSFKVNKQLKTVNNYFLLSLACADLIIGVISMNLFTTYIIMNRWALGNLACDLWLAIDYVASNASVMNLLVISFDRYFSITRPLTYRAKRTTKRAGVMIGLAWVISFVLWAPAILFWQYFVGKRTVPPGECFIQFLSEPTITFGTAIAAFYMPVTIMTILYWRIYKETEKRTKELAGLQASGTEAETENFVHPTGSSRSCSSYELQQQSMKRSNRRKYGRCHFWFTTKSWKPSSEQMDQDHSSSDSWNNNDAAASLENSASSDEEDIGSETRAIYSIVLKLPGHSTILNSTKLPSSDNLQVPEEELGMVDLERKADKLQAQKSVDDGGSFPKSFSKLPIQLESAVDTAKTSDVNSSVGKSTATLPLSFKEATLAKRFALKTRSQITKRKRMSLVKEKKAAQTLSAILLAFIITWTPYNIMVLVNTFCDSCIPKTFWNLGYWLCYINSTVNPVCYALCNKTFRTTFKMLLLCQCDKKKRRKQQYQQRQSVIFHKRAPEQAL
# test details: Alphascreen Surefire phospho-ERK1/2 functional assay, M3
# Type: cell-based
pEC50: −log10 of the molar value.
measured parameter: pEC50

What value of pEC50 has been recorded for this entry: CCOC(=O)N1C2CCC1CC(N1CC(OC(=O)N3CCCCCC3)C1)C2 (mixture of isomers) [Example 5-1 Isomer mixture]
< 4.70

###

# study system: human muscarinic M1 receptor (Homo sapiens)
# test details: Alphascreen Surefire phospho-ERK1/2 functional assay, M1
# Format: cell-based
# condition description: CHO cells stably expressing human M1; agonist 5 min, 37° C.; read-out: pEC50 M1 (converted)
Could you mark each record 1 if its EC50 falls strictly under 100 nM, and 0 if it equals or exceeds it?

Use these answered entries as a reference point.
[
  {
    "compound": "CCOC(=O)N1CC2CCC1CC2N1CC(CC(=O)N2CCC23CCC3)C1 (single isomer, unassigned) [Example 2-5 Isomer 1]",
    "class assignment": 0
  },
  {
    "compound": "CCOC(=O)N1CC2CCC1CC2N1CC(CC(=O)N2CCCCC2)C1 (single isomer, unassigned) [Example 2-3 Isomer 1]",
    "class assignment": 0
  },
  {
    "compound": "CCOC(=O)N1CC2(CCC(N3CC(OC(=O)N4CCOCC4)C3)C2)C1 (single isomer, unassigned) [Example 4-8 Isomer 1]",
    "class assignment": 1
  }
]

Quick check: does CCOC(=O)N1C2CCC1CC(N1CC(CC(=O)N(CC)CC)C1)C2 (single isomer, unassigned) [Example 1-1 Isomer 2] have EC50 under 100 nM?
0

Quick check: does CCOC(=O)N1CC2(CCC(N3CC(OC(=O)N4CCCOCC4)C3)C2)C1 (single isomer, unassigned) [Example 4-9 Isomer 1] have EC50 under 100 nM?
1

Quick check: does CCOC(=O)N1CC2CCC1CC2N1CC(OC(=O)N2CCCCC2)C1 (single isomer, unassigned) [Example 6-3 Isomer 1] have EC50 under 100 nM?
0
